Data origin, for the record: paper PMC12207370

Molecular target: biotinylated CD59 (Homo sapiens)
Construct: Recombinant soluble human CD59 with an additional C-terminal cysteine residue
Sequence (P13987 26-102 limits assumed): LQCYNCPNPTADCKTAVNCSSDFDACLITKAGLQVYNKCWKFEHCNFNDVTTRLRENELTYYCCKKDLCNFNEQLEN
Experiment: mRNA-display cyclic peptide screen against CD59-biotin, NGS abundance after 6th selection round
Conditions: counts normalised by total counts of NGS sample Seq II, sheet R6
Description: To discover novel non‐protein CD59 ligands, we screened a library of 10^12 cyclic peptides against CD59 using mRNA‐display (Figure 2a).^[ [23], [24], [25], [26], [27], [28], [29] ^] Briefly, an mRNA library was designed in which the start codon was reprogrammed from Met to N‐chloroacetyl‐D‐Tyr (ClAc‐D‐Tyr), followed by 10–12 randomly encoded natural amino acids, a Cys residue, a (GlySer)3 linker, and a stop codon. […]

{"primary.sequence": "FVRGDLYSILG", "Percentage of the pool, Seq II [%]": 0.014}
{"primary.sequence": "CAWGNRYTAYY", "Percentage of the pool, Seq II [%]": 0.012}
{"primary.sequence": "CKIDVYGRTWS", "Percentage of the pool, Seq II [%]": 0.012}
{"primary.sequence": "CYGDRTFIYAWS", "Percentage of the pool, Seq II [%]": 0.023}
{"primary.sequence": "HSYGSSQIAYH", "Percentage of the pool, Seq II [%]": 0.019}
{"primary.sequence": "FVSGNRDHTRG", "Percentage of the pool, Seq II [%]": 0.012}
{"primary.sequence": "WRDRFDQCAL", "Percentage of the pool, Seq II [%]": 0.014}
{"primary.sequence": "LWWSDFYLCVVVRQRQRQLGRGAE", "Percentage of the pool, Seq II [%]": 0.016}
{"primary.sequence": "GRYNECHFITS", "Percentage of the pool, Seq II [%]": 0.014}
{"primary.sequence": "FARGDLYSVLG", "Percentage of the pool, Seq II [%]": 0.012}
{"primary.sequence": "CYGGRSFIYAWS", "Percentage of the pool, Seq II [%]": 0.014}
{"primary.sequence": "TLSTNRDLIRLPAAAAAAARTGGG", "Percentage of the pool, Seq II [%]": 0.016}
{"primary.sequence": "WIRGNRDESLG", "Percentage of the pool, Seq II [%]": 0.016}
{"primary.sequence": "YVYGSRDRC", "Percentage of the pool, Seq II [%]": 0.012}
{"primary.sequence": "HCWVRGSRNYS", "Percentage of the pool, Seq II [%]": 0.012}
{"primary.sequence": "CYSLRLGPETV", "Percentage of the pool, Seq II [%]": 0.014}
{"primary.sequence": "FTRGNSTSVLF", "Percentage of the pool, Seq II [%]": 0.016}
{"primary.sequence": "FVRGDLYSALG", "Percentage of the pool, Seq II [%]": 0.014}
{"primary.sequence": "HVFGNKSFTRG", "Percentage of the pool, Seq II [%]": 0.021}
{"primary.sequence": "SAWGDRQIQYY", "Percentage of the pool, Seq II [%]": 0.014}
{"primary.sequence": "CFSRRLTEGAI", "Percentage of the pool, Seq II [%]": 0.012}
{"primary.sequence": "RTCHLRHDGPHA", "Percentage of the pool, Seq II [%]": 0.014}
{"primary.sequence": "CFSRRLTVGAI", "Percentage of the pool, Seq II [%]": 0.014}
{"primary.sequence": "HVFGNRSYTRG", "Percentage of the pool, Seq II [%]": 0.016}
{"primary.sequence": "YIRGTQDTFLF", "Percentage of the pool, Seq II [%]": 0.016}
{"primary.sequence": "LAWGNRQIQYY", "Percentage of the pool, Seq II [%]": 0.014}
{"primary.sequence": "RCWVRGSRNYT", "Percentage of the pool, Seq II [%]": 0.009}
{"primary.sequence": "PFAKRVAAQGGC", "Percentage of the pool, Seq II [%]": 0.014}
{"primary.sequence": "FVLGNRHTIVG", "Percentage of the pool, Seq II [%]": 0.014}
{"primary.sequence": "YVTGNRDHTRG", "Percentage of the pool, Seq II [%]": 0.019}
{"primary.sequence": "CFRNRIDLIS", "Percentage of the pool, Seq II [%]": 0.012}
{"primary.sequence": "CFVLRRNFEGT", "Percentage of the pool, Seq II [%]": 0.012}
{"primary.sequence": "FIRGNSTSVPF", "Percentage of the pool, Seq II [%]": 0.009}
{"primary.sequence": "FARGDRNHQFY", "Percentage of the pool, Seq II [%]": 0.012}
{"primary.sequence": "CFSHRNPTDSI", "Percentage of the pool, Seq II [%]": 0.014}
{"primary.sequence": "WAKGSDTFTSG", "Percentage of the pool, Seq II [%]": 0.00232}
{"primary.sequence": "CFAGRLTIDAG", "Percentage of the pool, Seq II [%]": 0.009}
{"primary.sequence": "SWTWGNRTSVRG", "Percentage of the pool, Seq II [%]": 0.016}
{"primary.sequence": "CFSARAVLDGGW", "Percentage of the pool, Seq II [%]": 0.007}
{"primary.sequence": "HCWVRGSRNHT", "Percentage of the pool, Seq II [%]": 0.012}
{"primary.sequence": "FVTGNRDHTRE", "Percentage of the pool, Seq II [%]": 0.016}
{"primary.sequence": "CFSSRTGTTSV", "Percentage of the pool, Seq II [%]": 0.023}
{"primary.sequence": "GYKNECHSFNW", "Percentage of the pool, Seq II [%]": 0.014}
{"primary.sequence": "HVFGNRSLTRG", "Percentage of the pool, Seq II [%]": 0.012}
{"primary.sequence": "CYAAGSASWSRG", "Percentage of the pool, Seq II [%]": 0.014}
{"primary.sequence": "LNPQGHCLLKL", "Percentage of the pool, Seq II [%]": 0.019}
{"primary.sequence": "CFVGRLTLTST", "Percentage of the pool, Seq II [%]": 0.007}
{"primary.sequence": "SAWGNRYIAYY", "Percentage of the pool, Seq II [%]": 0.014}
{"primary.sequence": "FVTGNRDHTRV", "Percentage of the pool, Seq II [%]": 0.012}
{"primary.sequence": "CFSPRVTEHST", "Percentage of the pool, Seq II [%]": 0.019}
{"primary.sequence": "CFAKRIVALHST", "Percentage of the pool, Seq II [%]": 0.016}
{"primary.sequence": "WRDRFDQCIL", "Percentage of the pool, Seq II [%]": 0.012}
{"primary.sequence": "SYGGRTFIYAWS", "Percentage of the pool, Seq II [%]": 0.012}
{"primary.sequence": "VVHGGKDYQWS", "Percentage of the pool, Seq II [%]": 0.012}
{"primary.sequence": "CYTYRSLDPQSV", "Percentage of the pool, Seq II [%]": 0.021}
{"primary.sequence": "WRDRFDQCVI", "Percentage of the pool, Seq II [%]": 0.012}
{"primary.sequence": "CFVNRLGSAESR", "Percentage of the pool, Seq II [%]": 0.021}
{"primary.sequence": "HAFGSRDIAYY", "Percentage of the pool, Seq II [%]": 0.012}
{"primary.sequence": "CYGGRTFIYSWS", "Percentage of the pool, Seq II [%]": 0.019}
{"primary.sequence": "DPYCPFFPEFR", "Percentage of the pool, Seq II [%]": 0.012}
{"primary.sequence": "CSAGRLTIDAV", "Percentage of the pool, Seq II [%]": 0.014}
{"primary.sequence": "DSRNQCHTWKT", "Percentage of the pool, Seq II [%]": 0.014}
{"primary.sequence": "CCGGRTFIYAWS", "Percentage of the pool, Seq II [%]": 0.009}
{"primary.sequence": "GRVRTCPVIV", "Percentage of the pool, Seq II [%]": 0.012}
{"primary.sequence": "TLSTNRDLIRLLAAAAAAARTGGG", "Percentage of the pool, Seq II [%]": 0.021}
{"primary.sequence": "SVRGDLYSVLG", "Percentage of the pool, Seq II [%]": 0.016}
{"primary.sequence": "IARGDRNHQFF", "Percentage of the pool, Seq II [%]": 0.014}
{"primary.sequence": "GRRNECLSRTS", "Percentage of the pool, Seq II [%]": 0.007}
{"primary.sequence": "VARGSKDWRWS", "Percentage of the pool, Seq II [%]": 0.014}
